# tgt: mu-opioid receptor (MOR) (Homo sapiens)
# Sequence (P35372 whole entry): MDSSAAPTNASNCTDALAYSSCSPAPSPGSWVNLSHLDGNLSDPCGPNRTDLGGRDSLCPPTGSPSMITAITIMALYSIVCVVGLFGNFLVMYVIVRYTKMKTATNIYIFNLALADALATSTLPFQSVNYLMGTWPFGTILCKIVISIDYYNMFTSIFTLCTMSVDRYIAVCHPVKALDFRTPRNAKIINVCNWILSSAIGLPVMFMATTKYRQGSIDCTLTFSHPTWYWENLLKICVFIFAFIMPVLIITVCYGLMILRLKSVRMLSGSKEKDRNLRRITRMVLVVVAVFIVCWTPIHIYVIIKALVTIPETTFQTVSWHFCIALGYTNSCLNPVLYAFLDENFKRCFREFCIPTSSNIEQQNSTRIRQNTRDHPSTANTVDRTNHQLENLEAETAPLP
# assay.notes: cell-based
# Assay type: cell-based
# conditions.used: read-out: MOR Agonist % Emax+/-SEM
Exercise: state measured Emax for each of the molecules provided.
Numbers only, in %.

Some solved cases for reference:
>>> measured_number("CCC=C[C@@H]1[C@H]2CCC[C@]1(c1cccc(O)c1)CCN2CCc1ccccc1 (stereo in doubt) [Compound 30]")
89.8
>>> measured_number("CC=C[C@@H]1C2CCC[C@@]1(c1cccc(O)c1)CCN2CCc1ccccc1 (stereo in doubt) [Compound 27]")
57.5
>>> measured_number("C=C[C@@H]1[C@@H]2CCC[C@@]1(c1cccc(O)c1)CCN2CCc1ccccc1 [Compound 18]")
46.6
>>> measured_number("CCC=C[C@H]1[C@H]2CCC[C@]1(c1cccc(O)c1)CCN2CCc1ccccc1 (stereo in doubt) [Compound 29]")
95.8
>>> measured_number("C=C[C@@H]1[C@H]2CCC[C@]1(c1cccc(O)c1)CCN2CCc1ccccc1 [Compound 14]")
67.3

With those in mind, consider the next molecule.
Looking up CC=C[C@@H]1[C@H]2CCC[C@]1(c1cccc(O)c1)CCN2CCc1ccccc1 (stereo in doubt) [Compound 23] , I found its Emax recorded as 101
